Assay: AUC (0 to 24 hrs) in rat at 4 mg/kg, po
Assay type: ADME, organism-based
Parameters: time < 24 hr, route oral, dose 4 mg/kg
Conditions: in vivo

{"structure": "CC(C)(O)C(=O)N[C@@H]1CC[C@@]2(S(=O)(=O)c3ccc(F)cc3)c3ccc(C(F)(C(F)(F)F)C(F)(F)F)cc3CC[C@@H]12", "value-unit": "µM·h", "AUC(0-t) at 24 h": 17}

----------
Assay: Oral bioavailability in dog at 2 mg/kg
Type: ADME, organism-based, Canis lupus familiaris
Conditions: in vivo

{"structure": "CC(C)(O)C(=O)N[C@@H]1CC[C@@]2(S(=O)(=O)c3ccc(F)cc3)c3ccc(C(F)(C(F)(F)F)C(F)(F)F)cc3CC[C@@H]12", "bioavailability, %": 83}

----------
Test: Cmax in rat at 4 mg/kg, po
Type: ADME, organism-based
Design: route oral, dose 4 mg/kg
Conditions: in vivo

{"structure": "CC(C)(O)C(=O)N[C@@H]1CC[C@@]2(S(=O)(=O)c3ccc(F)cc3)c3ccc(C(F)(C(F)(F)F)C(F)(F)F)cc3CC[C@@H]12", "Cmax / nM": 1000}

----------
Assay: Protein binding in mouse assessed as unbound fraction
Format: ADME
parameter: fraction unbound

{"structure": "CC(C)(O)C(=O)N[C@@H]1CC[C@@]2(S(=O)(=O)c3ccc(F)cc3)c3ccc(C(F)(C(F)(F)F)C(F)(F)F)cc3CC[C@@H]12", "observed-result": 0.006}

----------
Test: Metabolic stability in mouse liver microsomes assessed as parent compound remaining
Assay type: ADME, Microsome
Stabilty values for the compounds below.
parameter: Stabilty (%)

{"structure": "CC(C)(N)CC(=O)N[C@@H]1CC[C@@]2(S(=O)(=O)c3ccc(F)cc3)c3ccc(C(F)(C(F)(F)F)C(F)(F)F)cc3CC[C@@H]12", "observed-result": 85}
{"structure": "CC(C)(O)CC(=O)N[C@@H]1CC[C@@]2(S(=O)(=O)c3ccc(F)cc3)c3ccc(C(F)(C(F)(F)F)C(F)(F)F)cc3CC[C@@H]12", "observed-result": 86}
{"structure": "C[C@@H](O)C(=O)N[C@@H]1CC[C@@]2(S(=O)(=O)c3ccc(F)cc3)c3ccc(C(F)(C(F)(F)F)C(F)(F)F)cc3CC[C@@H]12", "observed-result": 70}

----------
Assay: Metabolic stability in mouse liver microsomes assessed as parent compound remaining
Format: ADME, Microsome
Where Stabilty equals or exceeds 90%, the correct label is y; where it does not, the label is n.

{"compound": "CC(C)(C(=O)N[C@@H]1CC[C@@]2(S(=O)(=O)c3ccc(F)cc3)c3ccc(C(F)(C(F)(F)F)C(F)(F)F)cc3CC[C@@H]12)N1CCNCC1", "assigned-class": "n"}
{"compound": "CC(=O)N1CCC(C(=O)N[C@@H]2CC[C@@]3(S(=O)(=O)c4ccc(F)cc4)c4ccc(C(F)(C(F)(F)F)C(F)(F)F)cc4CC[C@@H]23)CC1", "assigned-class": "n"}
{"compound": "O=C(NCCO)N[C@@H]1CC[C@@]2(S(=O)(=O)c3ccc(F)cc3)c3ccc(C(F)(C(F)(F)F)C(F)(F)F)cc3CC[C@@H]12", "assigned-class": "y"}
{"compound": "CC(C)(C(=O)N[C@@H]1CC[C@@]2(S(=O)(=O)c3ccc(F)cc3)c3ccc(C(F)(C(F)(F)F)C(F)(F)F)cc3CC[C@@H]12)N1CCOCC1", "assigned-class": "n"}
{"compound": "CC(=O)NCC(=O)N[C@@H]1CC[C@@]2(S(=O)(=O)c3ccc(F)cc3)c3ccc(C(F)(C(F)(F)F)C(F)(F)F)cc3CC[C@@H]12", "assigned-class": "y"}
{"compound": "CNC(=O)N[C@@H]1CC[C@@]2(S(=O)(=O)c3ccc(F)cc3)c3ccc(C(F)(C(F)(F)F)C(F)(F)F)cc3CC[C@@H]12", "assigned-class": "n"}
{"compound": "O=C(N[C@@H]1CC[C@@]2(S(=O)(=O)c3ccc(F)cc3)c3ccc(C(F)(C(F)(F)F)C(F)(F)F)cc3CC[C@@H]12)C1(O)CCOCC1", "assigned-class": "n"}
{"compound": "O=C(N[C@@H]1CC[C@@]2(S(=O)(=O)c3ccc(F)cc3)c3ccc(C(F)(C(F)(F)F)C(F)(F)F)cc3CC[C@@H]12)C1(O)CCCCC1", "assigned-class": "n"}
{"compound": "[2H]C([2H])([2H])N1C(=O)C(F)CC1C(=O)N[C@@H]1CC[C@@]2(S(=O)(=O)c3ccc(F)cc3)c3ccc(C(F)(C(F)(F)F)C(F)(F)F)cc3CC[C@@H]12 (single isomer, unassigned)", "assigned-class": "n"}
{"compound": "[2H]C([2H])([2H])N1C(=O)C(O)CC1C(=O)N[C@@H]1CC[C@@]2(S(=O)(=O)c3ccc(F)cc3)c3ccc(C(F)(C(F)(F)F)C(F)(F)F)cc3CC[C@@H]12 (single isomer, unassigned)", "assigned-class": "y"}
{"compound": "CC(C)(N)C(=O)N[C@@H]1CC[C@@]2(S(=O)(=O)c3ccc(F)cc3)c3ccc(C(F)(C(F)(F)F)C(F)(F)F)cc3CC[C@@H]12", "assigned-class": "y"}
{"compound": "O=C(CO)N[C@@H]1CC[C@@]2(S(=O)(=O)c3ccc(F)cc3)c3ccc(C(F)(C(F)(F)F)C(F)(F)F)cc3CC[C@@H]12", "assigned-class": "n"}
